target or test system: Human Polθ polymerase domain (aa1820-2590) (Homo sapiens, UniProt O75417)
Construct: Human Polθ polymerase domain (aa1820-2590) was expressed in E. coli; made in house; host or cells: E. coli
Sequence (O75417 1820-2590): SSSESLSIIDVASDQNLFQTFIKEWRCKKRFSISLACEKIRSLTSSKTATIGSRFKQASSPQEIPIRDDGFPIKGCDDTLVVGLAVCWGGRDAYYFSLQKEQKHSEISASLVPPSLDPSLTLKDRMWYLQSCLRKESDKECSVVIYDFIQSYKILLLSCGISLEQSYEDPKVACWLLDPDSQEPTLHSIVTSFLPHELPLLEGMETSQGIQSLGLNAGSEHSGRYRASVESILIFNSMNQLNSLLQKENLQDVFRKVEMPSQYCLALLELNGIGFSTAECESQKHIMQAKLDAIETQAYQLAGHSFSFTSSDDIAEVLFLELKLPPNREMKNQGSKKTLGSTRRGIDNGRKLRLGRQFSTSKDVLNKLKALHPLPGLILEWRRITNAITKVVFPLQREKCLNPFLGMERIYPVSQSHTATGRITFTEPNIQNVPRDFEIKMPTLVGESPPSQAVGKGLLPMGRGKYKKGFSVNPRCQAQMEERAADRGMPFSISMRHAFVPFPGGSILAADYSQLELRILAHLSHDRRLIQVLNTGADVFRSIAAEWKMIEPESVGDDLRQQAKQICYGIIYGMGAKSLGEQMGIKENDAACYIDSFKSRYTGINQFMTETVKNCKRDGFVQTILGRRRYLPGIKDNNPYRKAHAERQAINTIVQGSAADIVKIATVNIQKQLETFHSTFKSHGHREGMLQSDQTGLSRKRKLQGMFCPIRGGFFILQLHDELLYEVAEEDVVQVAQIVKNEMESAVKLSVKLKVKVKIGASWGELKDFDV
test details: Polθ Polymerase Domain Kinact/KI Assay (PicoGreen)
Assay type: biochemical
experimental parameters: 0.8 nM Polθ, 100 nM DNA substrate, kobs vs [I] fit for 2-step covalent inhibitor
Protocol: Polθ Polymerase Domain Kinact/KI Assay A PicoGreen assay was used to measure the Kinact and KI values of covalent compounds that inhibit the activity of Polθ in vitro. Human Polθ polymerase domain (aa1820-2590) was expressed in E. coli, purified, aliquoted and stored at −80° C. until required. Polθ substrate was generated from a 1.2:1 mix of DNA II Short to DNA II Long to give a final concentration of […] substrate in annealing buffer (20 mM Tris pH 7.5, 50 mM NaCl). […]
parameter: Kinact/Kl (M⁻¹ s⁻¹)

A = C=CC(=O)N1C[C@@H](F)[C@H](n2cc(CN3C[C@H]4CC(=O)N(c5cc(C(F)(F)F)cc(C)n5)[C@@H]4C(=O)N(C)c4cccc(C)c43)cn2)C1 (single isomer, unassigned) [Example 325b]
B = C=CC(=O)N1CC(N2CCC[C@H](CN3C[C@H]4CC(=O)N(c5cc(C(F)(F)F)cc(C)n5)[C@@H]4C(=O)N(C)c4cccc(F)c43)C2)C1 (racemic) [Example 225b]
Challenge: Thinking about recorded Kinact/Kl values, which is higher, A or B ? Answer by quoting the chosen item's label.
Response given: B
(B: 1.31e+06 M⁻¹ s⁻¹, A: 870000 M⁻¹ s⁻¹)

* * *

target or test system: Human Polθ polymerase domain (aa1820-2590) (Homo sapiens)
Construct: Human Polθ polymerase domain (aa1820-2590) was expressed in E. coli; made in house; host or cells: E. coli
test details: Polθ Polymerase Domain Kinact/KI Assay (PicoGreen)
Type: biochemical
experimental parameters: 0.8 nM Polθ, 100 nM DNA substrate, kobs vs [I] fit for 2-step covalent inhibitor
Protocol: Polθ Polymerase Domain Kinact/KI Assay A PicoGreen assay was used to measure the Kinact and KI values of covalent compounds that inhibit the activity of Polθ in vitro. Human Polθ polymerase domain (aa1820-2590) was expressed in E. coli, purified, aliquoted and stored at −80° C. until required. Polθ substrate was generated from a 1.2:1 mix of DNA II Short to DNA II Long to give a final concentration of […] substrate in annealing buffer (20 mM Tris pH 7.5, 50 mM NaCl). […]
parameter: Kinact/Kl (M⁻¹ s⁻¹)

Examples with answers:
The compound listed as `C=C(CN(C)C)C(=O)N1CC(OCCCN2C[C@H]3CC(=O)N(c4cc(C(F)(F)F)cc(C)n4)[C@@H]3C(=O)N(C)c3cccc(Cl)c32)C1` shows Kinact/Kl equal to 3.95e+06

Looking up `C=CC(=O)Nc1ccc(CN2C[C@H]3CC(=O)N(c4cc(C(F)(F)F)cc(C)n4)[C@@H]3C(=O)N(C)c3cccc(C)c32)cc1` , I see its Kinact/Kl listed as 810000

// sample `Cc1cc(C(F)(F)F)cc(N2C(=O)C[C@@H]3CN(Cc4ccc(CNC(=O)/C=C/CN(C)C)cc4)c4c(C)cccc4N(C)C(=O)[C@H]32)n1` , its Kinact/Kl was 260000

a = C=CC(=O)N1CC2(CN(CCN3C[C@H]4CC(=O)N(c5cc(C(F)(F)F)cc(C)n5)[C@@H]4C(=O)N(C)c4cccc(Cl)c43)C[C@H]2C#N)C1 (racemic) [Example 117b]
b = C=CC(=O)N1Cc2cc(CN3C[C@H]4CC(=O)N(c5cc(C(F)(F)F)cc(C)n5)[C@@H]4C(=O)N(C)c4cccc(Cl)c43)cnc2C1COC (mixture of isomers) [Example 236]
Challenge: Between a and b , which one shows the smaller Kinact/Kl number? Returns: label corresponding to the selected item.
Response given: b
(b: 1.24e+06 M⁻¹ s⁻¹, a: 3.5e+06 M⁻¹ s⁻¹)

* * *

target or test system: Human Polθ polymerase domain (aa1820-2590) (Homo sapiens, UniProt O75417)
Construct: Human Polθ polymerase domain (aa1820-2590) was expressed in E. coli; made in house; host or cells: E. coli
test details: Polθ Polymerase Domain Kinact/KI Assay (PicoGreen)
Type: biochemical
experimental parameters: 0.8 nM Polθ, 100 nM DNA substrate, kobs vs [I] fit for 2-step covalent inhibitor
parameter: Kinact/Kl (µM⁻¹ s⁻¹)

Here are 2 compounds together with their reported answers.
For reference, reported Kinact/Kl for C=CC(=O)N1CC(N(C)CC(O)CN2C[C@H]3CC(=O)N(c4cc(C(F)(F)F)cc(C)n4)[C@@H]3C(=O)N(C)c3cccc(Cl)c32)C1 (single isomer, unassigned) stands at 1.09

According to the records, this compound C=CC(=O)N1C[C@@H]2CN(CCN3C[C@H]4CC(=O)N(c5cc(C(F)(F)F)cc(C)n5)[C@@H]4C(=O)N(C)c4cccc(F)c43)CCN2[C@H](C)C1 [Example 63a] displays Kinact/Kl of 3.10

1 = C=CC(=O)N1CCN(c2nc(CN3C[C@H]4CC(=O)N(c5cc(C(F)(F)F)cc(C)n5)[C@@H]4C(=O)N(C)c4cccc(F)c43)c[nH]2)CC1
2 = C#CC(=O)N1CCN(CCN2C[C@H]3CC(=O)N(c4cc(C(F)(F)F)cc(C)n4)[C@@H]3C(=O)N(C)c3cccc(C)c32)CC1
Challenge: Hi, I'm comparing 1 with 2 and wondering which one has the bigger number for Kinact/Kl. Any idea? State the label of the item chosen.
Response given: 1

* * *

target or test system: Human Polθ polymerase domain (aa1820-2590) (Homo sapiens)
Construct: Human Polθ polymerase domain (aa1820-2590) was expressed in E. coli; made in house; host or cells: E. coli
test details: Polθ Polymerase Domain Kinact/KI Assay (PicoGreen)
Type: biochemical
experimental parameters: 0.8 nM Polθ, 100 nM DNA substrate, kobs vs [I] fit for 2-step covalent inhibitor
parameter: Kinact/Kl (µM⁻¹ s⁻¹)

A = C=CC(=O)N1CC2(CN(CCN3C[C@H]4CC(=O)N(c5cc(C(F)(F)F)cc(C)n5)[C@@H]4C(=O)N(C)c4cccc(F)c43)C[C@H](C)N2)C1 [Example 32]
B = C=CC(=O)N1CC(N2CC[C@@H](CCN3C[C@H]4CC(=O)N(c5cc(C(F)(F)F)cc(C)n5)[C@@H]4C(=O)N(C)c4cccc(Cl)c43)C2)C1 [Example 220]
Challenge: Looking only at measured Kinact/Kl, which entry is lower, A or B ? Select an item and report its label.
Response given: A
(A: 0.42 µM⁻¹ s⁻¹, B: 3.66 µM⁻¹ s⁻¹)

* * *

target or test system: Human Polθ polymerase domain (aa1820-2590) (Homo sapiens)
Construct: Human Polθ polymerase domain (aa1820-2590) was expressed in E. coli; made in house; host or cells: E. coli
test details: Polθ Polymerase Domain Kinact/KI Assay (PicoGreen)
Format: biochemical
experimental parameters: 0.8 nM Polθ, 100 nM DNA substrate, kobs vs [I] fit for 2-step covalent inhibitor
parameter: Kinact/Kl (M⁻¹ s⁻¹)

Short answer on Human Polθ polymerase domain (aa1820-2590) (Homo sapiens) for Cc1cc(C(F)(F)F)cc(N2C(=O)C[C@@H]3CN(Cc4cccc(NC(=O)/C=C/CN(C)C)c4)c4c(Cl)cccc4N(C)C(=O)[C@H]32)n1 [Example 247] , Kinact/Kl: 980000

1 = C=CC(=O)N1CCC(n2cnc(CN3C[C@H]4CC(=O)N(c5cc(C(F)(F)F)cc(C)n5)[C@@H]4C(=O)N(C)c4cccc(Cl)c43)n2)CC1 [Example 135]
2 = C=C(CN(C)C)C(=O)N1CCC(CCCN2C[C@H]3CC(=O)N(c4cc(C(F)(F)F)cc(C)n4)[C@@H]3C(=O)N(C)c3cccc(Cl)c32)CC1 [Example 158]
Challenge: Param metric = Kinact/Kl; output whichever of 1 , 2 has the minimum value. Output the label that corresponds to your choice.
Response given: 1
(1: 2e+06 M⁻¹ s⁻¹, 2: 3.72e+06 M⁻¹ s⁻¹)

* * *

target or test system: Human Polθ polymerase domain (aa1820-2590) (Homo sapiens, UniProt O75417)
Construct: Human Polθ polymerase domain (aa1820-2590) was expressed in E. coli; made in house; host or cells: E. coli
test details: Polθ Polymerase Domain Kinact/KI Assay (PicoGreen)
Type: biochemical
experimental parameters: 0.8 nM Polθ, 100 nM DNA substrate, kobs vs [I] fit for 2-step covalent inhibitor
parameter: Kinact/Kl (M⁻¹ s⁻¹)

a = C=CC(=O)N1CC(N2CC[C@@H](CN3C[C@H]4CC(=O)N(c5cc(C(F)(F)F)cc(C)n5)[C@@H]4C(=O)N(C)c4cccc(Cl)c43)[C@@H](C#N)C2)C1 (single isomer, unassigned) [Example 227b]
b = C=CC(=O)N1C[C@@H](F)[C@@H](n2cnc(CN3C[C@H]4CC(=O)N(c5cc(C(F)(F)F)cc(C)n5)[C@@H]4C(=O)N(C)c4cccc(C)c43)c2)C1 (single isomer, unassigned) [Example 326a]
Challenge: Could you check which of a and b has a smaller value for Kinact/Kl? # respond with the chosen item's label
Response given: b
(b: 450000 M⁻¹ s⁻¹, a: 1.07e+06 M⁻¹ s⁻¹)
